experiment: safety test, oral and transdermal toxicity in rabbits; details: rabbit, in vivo, oral, read-out: LD50 (oral)
READOUT NAME: LD50

Which LD50 is listed for CC/C=C\CCOC(C)=O [cis-3-hexenyl acetate] ? > 5000 mg/kg
